Quick list: IC50 per entry.
measurement-target: PE-labeled human PD-L1-Ig binding to Jurkat cell line over-expressing human PD-1 (Jurkat-PD-1) (Homo sapiens, UniProt Q15116)
Construct: expressed in transfected cells; host or cells: Jurkat
Sequence (Q15116 25-288): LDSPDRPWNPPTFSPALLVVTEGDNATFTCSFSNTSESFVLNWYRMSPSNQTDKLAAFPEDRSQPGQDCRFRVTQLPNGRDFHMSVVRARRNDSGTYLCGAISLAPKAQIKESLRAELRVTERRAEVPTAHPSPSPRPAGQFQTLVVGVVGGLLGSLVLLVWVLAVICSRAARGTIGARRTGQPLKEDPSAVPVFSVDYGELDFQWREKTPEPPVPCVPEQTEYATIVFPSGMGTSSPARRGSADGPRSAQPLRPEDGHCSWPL
assay-details: Jurkat-PD-1 Cell Binding High-Content Screening Assay (CBA): Method 1
test-conditions: Jurkat-hPD-1 cells, PE-labeled PD-L1-Ig 20 nM final; read-out: Jurkat HPDL1 PD1 IC50 (uM) (Method 1)
Bridge positions count the residues as written; N and C are the ends. Square brackets hold non-standard residues; d marks the D form. Peptide text beside a SMILES is read from it. * marks the point of attachment. Phe(3-CF3) = N[C@@H](Cc1cccc(C(F)(F)F)c1)C(=O)O; Phe(4-COOH) = N[C@@H](Cc1ccc(C(=O)O)cc1)C(=O)O; Bip = N[C@@H](Cc1ccc(-c2ccccc2)cc1)C(=O)O; 4Pal = N[C@@H](Cc1ccncc1)C(=O)O; Cha = N[C@@H](CC1CCCCC1)C(=O)O; dNva = CCC[C@@H](N)C(=O)O; Carboxymethyl = O=C(O)C*; NMeA = CN[C@@H](C)C(=O)O; Dab = NCC[C@H](N)C(=O)O; Dap = NC[C@H](N)C(=O)O
Report as a plain number; the unit µM is understood.

Study these solved cases before continuing.
# molecule, IC50 (µM)
records = [
    ("CC(C)C[C@@H]1NC(=O)[C@H](CCN)NC(=O)[C@@H](CC(C)C)NC(=O)[C@H](C)N(C)C(=O)[C@H](C(C)C)NC(=O)[C@H](Cc2ccc(-c3ccccc3)cc2)NC(=O)[C@H](C(C)C)NC(=O)[C@H](Cc2c[nH]c3ccccc23)NC(=O)[C@H](CC(=O)O)NC(=O)[C@H](Cc2ccc(O)cc2)NC(=O)[C@H](CN)NC(=O)CSC[C@@H](C(=O)N[C@@H](C)C(N)=O)NC(=O)[C@H]([C@@H](C)O)NC(=O)[C@H](C(C)C)NC1=O [Compound 1360] ({CH2CO}-[Dap]YDWV[Bip]V[NMeA][dL][Dab]LVTCA-NH2; thioether N-14)", 0.02),
    ("CC(C)C[C@@H]1NC(=O)[C@H](Cc2c[nH]c3ccccc23)NC(=O)[C@H](CC(=O)O)NC(=O)[C@H](Cc2ccc(OCC(=O)O)cc2)NC(=O)[C@H](Cc2ccccc2)NC(=O)CSC[C@@H](C(N)=O)NC(=O)[C@H](CO)NC(=O)[C@H](C(C)C)NC(=O)[C@H](CC(C)C)NC(=O)[C@H](CC(N)=O)NC(=O)[C@@H](CC(C)C)NC(=O)[C@H](C)N(C)C(=O)[C@H](CCC(=O)O)NC(=O)[C@H](Cc2ccc(-c3ccccc3)cc2)NC1=O [Compound 1628] ({CH2CO}-FY(Carboxymethyl)DWL[Bip]E[NMeA][dL]NLVSC-NH2; thioether N-14)", 0.09),
    ("CC(C)C[C@@H]1NC(=O)[C@H](Cc2c[nH]c3ccccc23)NC(=O)[C@H](CC(=O)O)NC(=O)[C@H](Cc2ccc(C(=O)O)cc2)NC(=O)[C@H](Cc2ccccc2)NC(=O)CSC[C@@H](C(=O)N[C@@H](C)C(N)=O)NC(=O)[C@H](CO)NC(=O)[C@H](C(C)C)NC(=O)[C@H](CC(C)C)NC(=O)[C@H](CCCCN)NC(=O)[C@@H](C)NC(=O)[C@H](C)N(C)C(=O)[C@H](CCC(=O)O)NC(=O)[C@H](Cc2ccc(-c3ccccc3)cc2)NC1=O [Compound 1746] ({CH2CO}-F[Phe(4-COOH)]DWL[Bip]E[NMeA][dA]KLVSCA-NH2; thioether N-14)", 0.02),
    ("CC(C)C[C@H]1NC(=O)[C@H](C)N(C)C(=O)[C@H](C(C)C)NC(=O)[C@H](Cc2ccc(-c3ccccc3)cc2)NC(=O)[C@H](C(C)C)NC(=O)[C@H](Cc2c[nH]c3ccccc23)NC(=O)[C@H](CC(=O)O)NC(=O)[C@H](Cc2ccc(O)cc2)NC(=O)[C@H](CC(N)=O)NC(=O)CSC[C@@H](C(=O)N[C@@H](C)C(N)=O)NC(=O)[C@H]([C@@H](C)O)NC(=O)[C@H](C(C)C)NC(=O)[C@H](CC2CCCCC2)NC(=O)[C@H](CCN)NC1=O [Compound 1296] ({CH2CO}-NYDWV[Bip]V[NMeA][dL][Dab][Cha]VTCA-NH2; thioether N-14)", 0.01),
    ("CC(C)C[C@@H]1NC(=O)[C@H](Cc2c[nH]c3ccccc23)NC(=O)[C@H](CC(=O)O)NC(=O)[C@H](Cc2ccc(O)cc2)NC(=O)[C@H](Cc2ccncc2)NC(=O)CSC[C@@H](C(=O)N[C@@H](C)C(N)=O)NC(=O)[C@H](CO)NC(=O)[C@H](C(C)C)NC(=O)[C@H](CC(C)C)NC(=O)[C@H](CC(N)=O)NC(=O)[C@@H](C)NC(=O)[C@H](C)N(C)C(=O)[C@H](C(C)C)NC(=O)[C@H](Cc2ccc(-c3ccccc3)cc2)NC1=O [Compound 1730] ({CH2CO}-[4Pal]YDWL[Bip]V[NMeA][dA]NLVSCA-NH2; thioether N-14)", 0.01),
    ("CCC[C@H]1NC(=O)[C@H](C)N(C)C(=O)[C@H](CCCNC(=N)N)NC(=O)[C@H](Cc2ccc(-c3ccccc3)cc2)NC(=O)[C@H](C(C)C)NC(=O)[C@H](Cc2c[nH]c3ccccc23)NC(=O)[C@H](CC(=O)O)NC(=O)[C@H](Cc2ccc(O)cc2)NC(=O)[C@H](Cc2ccccc2)NC(=O)CSC[C@@H](C(=O)N[C@@H](C)C(N)=O)NC(=O)[C@H]([C@@H](C)O)NC(=O)[C@H](C(C)C)NC(=O)[C@H](CC(C)C)NC(=O)[C@H](CCCNC(=N)N)NC1=O [Compound 1064] ({CH2CO}-FYDWV[Bip]R[NMeA][dNva]RLVTCA-NH2; thioether N-14)", 0.1),
]

Any idea what its IC50 is? The molecule is CC(C)C[C@@H]1NC(=O)[C@H](Cc2c[nH]c3ccccc23)NC(=O)[C@H](CC(=O)O)NC(=O)[C@H](Cc2cccc(C(F)(F)F)c2)NC(=O)[C@H](Cc2ccccc2)NC(=O)CSC[C@@H](C(=O)N[C@@H](C)C(N)=O)NC(=O)[C@H](CO)NC(=O)[C@H](C(C)C)NC(=O)[C@H](CC(C)C)NC(=O)[C@H](CC(N)=O)NC(=O)[C@@H](C)NC(=O)[C@H](C)N(C)C(=O)[C@H](C(C)C)NC(=O)[C@H](Cc2ccc(-c3ccccc3)cc2)NC1=O [Compound 1777] ({CH2CO}-F[Phe(3-CF3)]DWL[Bip]V[NMeA][dA]NLVSCA-NH2; thioether N-14)
0.06

Any idea what its IC50 is? The molecule is CC(C)C[C@@H]1NC(=O)[C@H](CCCNC(=N)N)NC(=O)[C@@H](CC(C)C)NC(=O)[C@H](C)N(C)C(=O)[C@H](CCC(=O)O)NC(=O)[C@H](Cc2ccc(-c3ccccc3)cc2)NC(=O)[C@H](C(C)C)NC(=O)[C@H](Cc2c[nH]c3ccccc23)NC(=O)[C@H](CC(=O)O)NC(=O)[C@H](Cc2ccc(O)cc2)NC(=O)[C@H](CC(N)=O)NC(=O)CSC[C@@H](C(=O)N[C@@H](C)C(N)=O)NC(=O)[C@H](CO)NC(=O)[C@H](C(C)C)NC1=O [Compound 1256] ({CH2CO}-NYDWV[Bip]E[NMeA][dL]RLVSCA-NH2; thioether N-14)
0.06
